Provenance of the data: PubChem BioAssay AID1159580

assayComment: chemical genetic growth profiling, strain panel (AID 1159580);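 also: tested at 20 µM; growth read once vehicle control cultures reached saturation at 30 °C; lower values mean less growth of the strain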
measurementSetup: S. cerevisiae deletion strains, growth OD, locus YPR119W, strain clb2, active compounds read low
About 2,000 (36%) of roughly 5,500 compounds were called active. About 18% were inconclusive and are not listed. The list shows a part of the results.
Label Satisfied when normalized growth is strictly below 1; at or above that, label Not satisfied.

[
  {
    "compound": "O=C(O[C@@H]1Cc2c(O)cc(O)cc2O[C@@H]1c1ccc(O)c(O)c1)c1cc(O)c(O)c(O)c1",
    "labelValue": "Not satisfied"
  },
  {
    "compound": "COC(=O)c1cc(=O)c(O)c2c(O)c(O)ccc2c1",
    "labelValue": "Satisfied"
  },
  {
    "compound": "CC(=O)S[C@@H]1CC2=CC(=O)CC[C@]2(C)[C@H]2CC[C@@]3(C)[C@@H](CC[C@@]34CCC(=O)O4)C12 (stereo partly drawn)",
    "labelValue": "Not satisfied"
  }
]
